Overview of recorded Relative activity (%), EC50 COM701/EC50 antibody for various binders
TEST_TARGET: T1, human CD112R on Jurkat CD112R effector cells (human, UniProt Q6DKI7 1-326)
T1 sequence (looked up): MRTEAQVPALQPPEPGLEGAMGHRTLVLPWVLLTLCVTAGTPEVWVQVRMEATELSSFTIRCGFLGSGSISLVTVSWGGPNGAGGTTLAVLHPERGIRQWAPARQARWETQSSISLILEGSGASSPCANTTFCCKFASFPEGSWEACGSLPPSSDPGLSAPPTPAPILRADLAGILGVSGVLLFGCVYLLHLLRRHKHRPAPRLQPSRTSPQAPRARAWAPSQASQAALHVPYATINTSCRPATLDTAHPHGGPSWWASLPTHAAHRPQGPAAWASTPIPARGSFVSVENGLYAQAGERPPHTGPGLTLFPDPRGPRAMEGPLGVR
ASSAY_NAME: cell-based or functional assay
Hi! Could you send only the number? It should be in %, unit omitted.

1. Hu49 (antibody, IgG4, V domains shown, humanized IgG4) VH: EVQLVESGGGLVKPGGSLRLSCAASGFTFSSYHMSWVRQAPGKGLELVSAINSNGINTYYLDTVKGRFTISRDNAKNSLYLQMNSLRAEDTAVYYCARHEDYYGFAMDYWGQGTLVTVSS VL: DIVMTQSPDSLAVSLGERATINCKASQSVTNDVAWYQQKPGQPPKLLIYYVSNHYTGVPDRFSGSGSGTDFTLTISSLQAEDVAVYFCQQAYRSPWTFGQGTKLEIK; 214
2. Hu39 (antibody, IgG4, V domains shown) VH: EVQLVESGGGLVQPGGSLRLSCAASGFTFSSYHMSWVRQAPGKGLELVSAINSNVISTYYLDTVKGRFTISRDNAKNSLYLQMNSLRAEDTAVYYCARHEDYYGFAMDYWGQGTLVTVSS VL: EIVMTQSPPTLSLSPGERVTLSCKASQSVSNDVAWYQEKPGQAPRLLIYYVSHRFTGIPARFSGSGSGTDFTLTISSLQPEDFAVYYCHQAYRSPWTFGQGTKLEIK; 254
3. Hu50 (antibody, IgG4, V domains shown, humanized IgG4) VH: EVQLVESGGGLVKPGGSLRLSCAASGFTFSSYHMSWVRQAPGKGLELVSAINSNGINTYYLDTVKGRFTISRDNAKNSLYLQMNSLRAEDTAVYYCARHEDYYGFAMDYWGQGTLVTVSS VL: AIQMTQSPSSLSASVGDRVTITCKASQSVTNDVAWYQQKPGKAPKLLIYYVSNHYTGVPSRFSGSGSGTDFTLTISSLQPEDFATYFCQQAYRSPWTFGQGTKLEIK; 245
4. Hu40 (antibody, IgG4, V domains shown) VH: EVQLVESGGGLVQPGGSLRLSCAASGFTFSSYHMSWVRQAPGKGLELVSAINSNVISTYYLDTVKGRFTISRDNAKNSLYLQMNSLRAEDTAVYYCARHEDYYGFAMDYWGQGTLVTVSS VL: DIVMTQSPDSLAVSLGERATINCKASQSVSNDVAWYQQKPGQPPKLLIYYVSHRFTGVPDRFSGSGSGTDFTLTISSLQAEDVAVYFCHQAYRSPWTFGQGTKLEIK; 227
5. Hu57 (antibody, IgG4, V domains shown, humanized IgG4) VH: EVQLVESGGGLVQPGGSLRLSCAASGFTFSSYHMSWIRQAPGKGLELVAAINSNGINTYYLDTVKGRFTISRDNAKNSLYLQMNSLRAEDTAVYYCARHEDYYGFAMDYWGQGTLVTVSS VL: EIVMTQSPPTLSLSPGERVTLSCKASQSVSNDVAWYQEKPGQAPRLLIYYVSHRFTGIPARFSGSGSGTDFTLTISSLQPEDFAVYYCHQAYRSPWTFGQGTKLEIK; 4.5
6. Hu34 (antibody, IgG4, V domains shown, humanized IgG4) VH: EVQLVESGGGLVQPGGSLRLSCAASGFTFSSYHMSWVRQAPGKGLELVAAISRDGDSTYYPDTVKGRFTISRDDAENSLYLQMNSLRAEDTAVYYCSRHEDYFGFAMDSWGQGTLVTVSS VL: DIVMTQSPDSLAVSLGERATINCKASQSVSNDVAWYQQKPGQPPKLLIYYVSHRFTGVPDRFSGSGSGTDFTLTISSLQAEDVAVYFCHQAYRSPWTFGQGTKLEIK; 160

Which Relative activity (%), EC50 COM701/EC50 antibody is reported for this binder? Hu19 (antibody, IgG4, V domains shown, humanized IgG4) VH: EVQLVESGGGLVKPGGSLRLSCAASGFTFSSYHMSWVRQAPGKGLELVSAISRDGDSTYYPDTVKGRFTISRDDAENSLYLQMNSLRAEDTAVYYCSRHEDYFGFAMDSWGQGTLVTVSS VL: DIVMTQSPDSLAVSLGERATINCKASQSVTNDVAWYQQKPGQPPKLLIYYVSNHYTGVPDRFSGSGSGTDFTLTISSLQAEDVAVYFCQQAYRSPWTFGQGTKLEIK 127

Lookup Hu38 (antibody, IgG4, V domains shown) VH: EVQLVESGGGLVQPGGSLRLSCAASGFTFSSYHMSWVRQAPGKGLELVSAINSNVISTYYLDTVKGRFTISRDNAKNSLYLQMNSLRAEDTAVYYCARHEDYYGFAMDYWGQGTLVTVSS VL: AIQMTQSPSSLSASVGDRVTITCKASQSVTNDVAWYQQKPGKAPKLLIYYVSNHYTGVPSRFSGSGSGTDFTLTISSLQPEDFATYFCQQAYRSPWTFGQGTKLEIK 192

Lookup Hu56 (antibody, IgG4, V domains shown, humanized IgG4) VH: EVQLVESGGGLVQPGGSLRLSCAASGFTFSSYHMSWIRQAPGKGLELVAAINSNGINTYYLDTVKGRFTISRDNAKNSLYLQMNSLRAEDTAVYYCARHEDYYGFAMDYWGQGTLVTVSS VL: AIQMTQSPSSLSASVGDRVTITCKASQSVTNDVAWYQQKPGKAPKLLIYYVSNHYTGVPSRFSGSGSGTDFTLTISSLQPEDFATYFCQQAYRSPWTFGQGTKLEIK 276

Lookup Hu20 (antibody, IgG4, V domains shown, humanized IgG4) VH: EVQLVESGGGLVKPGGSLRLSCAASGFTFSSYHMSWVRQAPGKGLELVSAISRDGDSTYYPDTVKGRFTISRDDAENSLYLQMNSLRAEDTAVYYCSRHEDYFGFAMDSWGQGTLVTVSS VL: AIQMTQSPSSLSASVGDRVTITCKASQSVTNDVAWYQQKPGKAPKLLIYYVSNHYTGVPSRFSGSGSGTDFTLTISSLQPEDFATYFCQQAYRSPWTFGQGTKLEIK 135

// provenance: patent US20240309087A1
